Assay: Drug concentration in BALB/c mouse plasma at 11.4 mg/kg, po via gavage measured after 60 mins by LC-MS/MS analysis
Format: ADME, organism-based
measured parameter: concentration at 1 h (ng/mL)

1. O=c1[nH]c(=O)n([C@@H]2CO[C@H](CO)O2)cc1/C=C/Br :: 6180

====

Experiment: Selectivity index, ratio of CC50 for HFF cells to EC50 for VZV infected HFF cells
Format: toxicity
Details: human, read-out: Selectivity Index
measured parameter: selectivity ratio

1) O=c1[nH]c(=O)n([C@@H]2CO[C@H](CO)O2)cc1/C=C/Br :: > 909

====

Test: Drug concentration in BALB/c mouse plasma at 11.4 mg/kg, po via gavage measured after 40 mins by LC-MS/MS analysis
Assay type: ADME, organism-based
measured parameter: concentration at 40 min (ng/mL)

1) O=c1[nH]c(=O)n([C@@H]2CO[C@H](CO)O2)cc1/C=C/Br :: 4500

====

Item-by-item account of selectivity ratio
Test: Selectivity index, ratio of CC50 for human ARPE-19 cells to EC50 for VZV infected human ARPE-19 cells
Format: toxicity
Settings: VZV infected ARPE-19 cells, read-out: Selectivity Index
measured parameter: selectivity ratio

1. CCCCCCCCCCCCCCCCCCOCCOP(=O)(OC[C@H]1OC[C@@H](n2cc(/C=C/Br)c(=O)[nH]c2=O)O1)Oc1ccccc1 (stereo partly drawn) :: 339
2. NCC(=O)OC[C@H]1OC[C@@H](n2cc(/C=C/Br)c(=O)[nH]c2=O)O1 :: > 2130
3. N[C@@H](Cc1c[nH]c2ccccc12)C(=O)OC[C@H]1OC[C@@H](n2cc(/C=C/Br)c(=O)[nH]c2=O)O1 :: > 1550
4. CC(C)C[C@H](N)C(=O)OC[C@H]1OC[C@@H](n2cc(/C=C/Br)c(=O)[nH]c2=O)O1 :: > 2420
5. O=c1[nH]c(=O)n([C@@H]2CO[C@H](CO)O2)cc1/C=C/Br :: > 3880
6. C[C@@H](N)C(=O)OC[C@H]1OC[C@@H](n2cc(/C=C/Br)c(=O)[nH]c2=O)O1 :: > 2960
7. O=C(OC[C@H]1OC[C@@H](n2cc(/C=C/Br)c(=O)[nH]c2=O)O1)[C@@H]1CCCN1 :: > 1930
8. N[C@@H](Cc1ccc(O)cc1)C(=O)OC[C@H]1OC[C@@H](n2cc(/C=C/Br)c(=O)[nH]c2=O)O1 :: > 826

====

Experiment: Selectivity index, ratio of CC50 for human ARPE-19 cells to EC50 for VZV infected human ARPE-19 cells
Type: toxicity
Details: VZV infected ARPE-19 cells, read-out: Selectivity Index
measured parameter: selectivity ratio

1) CC(C)C(=O)OCOP(=O)(OCOC(=O)C(C)C)OC[C@H]1OC[C@@H](n2cc(/C=C/Br)c(=O)[nH]c2=O)O1 :: > 2920
2) CC(C)(C)C(=O)OCOP(=O)(OCOC(=O)C(C)(C)C)OC[C@H]1OC[C@@H](n2cc(/C=C/Br)c(=O)[nH]c2=O)O1 :: > 2810
3) CC[C@H](C)[C@H](N)C(=O)OC[C@H]1OC[C@@H](n2cc(/C=C/Br)c(=O)[nH]c2=O)O1 :: > 1520
4) CC(C)[C@@H](N)C(=O)OC[C@H]1OC[C@@H](n2cc(/C=C/Br)c(=O)[nH]c2=O)O1 :: > 3320
5) N[C@H](Cc1ccccc1)C(=O)OC[C@H]1OC[C@@H](n2cc(/C=C/Br)c(=O)[nH]c2=O)O1 :: > 3480
